Parameter: MIC50. Scope: all listed entries.
- Tested on: H. influenzae isolates (Eurofins-Medinet, recent clinical isolates)
- Test name: MIC50 and MIC90 analysis (Example 22)
- Condition notes: Haemophilus influenzae
Write the answer as a number in µg/mL, unit excluded.

Reference set (2 entries):
# Molecule, MIC50 [µg/mL]
data = [
    ("CN(C)CC(C)(C)CNc1nc(Cl)c2c(c1O)C(=O)C1=C(O)[C@]3(O)C(=O)C(C(N)=O)=C(O)[C@@H](N(C)C)[C@@H]3C[C@@H]1C2", 1),
    ("CN(C)[C@@H]1C(O)=C(C(N)=O)C(=O)[C@@]2(O)C(O)=C3C(=O)c4c(O)cccc4[C@@](C)(O)[C@H]3C[C@@H]12 [Tetracycline, tetracycline, reference compound]", 0.5),
]

q: Output MIC50 of C[C@H]1c2cccc(O)c2C(=O)C2=C(O)[C@]3(O)C(=O)C(C(N)=O)=C(O)[C@@H](N(C)C)[C@@H]3[C@@H](O)[C@@H]21 [Doxycycline, doxycycline, reference compound]
a: 1

q: Complete the entry with MIC50 for CN(C)c1ncc(O)c2c1C[C@H]1C[C@H]3[C@H](N(C)C)C(O)=C(C(N)=O)C(=O)[C@@]3(O)C(O)=C1C2=O
a: 0.5

====

- Tested on: E. coli ATCC 25922
- Test name: Mouse systemic infection model, E. coli septicemia
- Condition notes: mouse septicemia, E. coli ATCC 25922, treatment one hour post-challenge, survival after 48 hours
# PD50 annotations
Kindly provide the numeric value in mg/kg only, without the unit symbol.

Worked examples, 3 molecules total:
# Molecule, Tested target, Readout number
rows = [
    ("CN(C)c1cc(NC(=O)CNC(C)(C)C)c(O)c2c1C[C@H]1C[C@H]3[C@H](N(C)C)C(O)=C(C(N)=O)C(=O)[C@@]3(O)C(O)=C1C2=O [tigecycline, reference compound]", "E. coli ATCC 25922", 2.1),
    ("CN(C)CC(C)(C)CNc1nc(Cl)c2c(c1O)C(=O)C1=C(O)[C@]3(O)C(=O)C(C(N)=O)=C(O)[C@@H](N(C)C)[C@@H]3C[C@@H]1C2", "E. coli ATCC 25922", 17.0),
    ("CN(C)c1ncc(O)c2c1C[C@H]1C[C@H]3[C@H](N(C)C)C(O)=C(C(N)=O)C(=O)[C@@]3(O)C(O)=C1C2=O", "E. coli ATCC 25922", 4.3),
]

q: Assign PD50 to the following record: CN(C)[C@@H]1C(O)=C(C(N)=O)C(=O)[C@@]2(O)C(O)=C3C(=O)c4c(O)cccc4[C@@](C)(O)[C@H]3C[C@@H]12 [Tetracycline, tetracycline, reference compound]
a: 17.0

====

Listed here: items and their measured AUC(0-t).
- Test name: in vivo
- Condition notes: Sprague-Dawley, rat, iv, 1 mg/kg
Give just the numeric value; ng·h/mL need not be written.

# Cpd smiles, Unit annotation, Readout number
data = [
    ("CN(C)c1ncc(O)c2c1C[C@H]1C[C@H]3[C@H](N(C)C)C(O)=C(C(N)=O)C(=O)[C@@]3(O)C(O)=C1C2=O", "ng·h/mL", 1090),
]

q: Supply AUC(0-t) value. Item: CN(C)CC(C)(C)CNc1nc(Cl)c2c(c1O)C(=O)C1=C(O)[C@]3(O)C(=O)C(C(N)=O)=C(O)[C@@H](N(C)C)[C@@H]3C[C@@H]1C2
a: 4870

====

- Test name: in vivo
- Condition notes: Sprague-Dawley, rat, po, 10 mg/kg
// half-life lookup, one value per entry
Field: numeric (h). Do not append units.

# Cpd smiles, Parameter measured, Readout number
records = [
    ("CN(C)c1ncc(O)c2c1C[C@H]1C[C@H]3[C@H](N(C)C)C(O)=C(C(N)=O)C(=O)[C@@]3(O)C(O)=C1C2=O", "half-life", 4.51),
]

For the next question, use this compound.
q: For the compound CN(C)CC(C)(C)CNc1nc(Cl)c2c(c1O)C(=O)C1=C(O)[C@]3(O)C(=O)C(C(N)=O)=C(O)[C@@H](N(C)C)[C@@H]3C[C@@H]1C2 , report half-life.
a: 5.21

====

- Tested on: Escherichia coli EC107, ATCC 25922
- Test name: MIC assay, EC107
- Assay type: cell-based
- Condition notes: ATCC25922, Table 8, read-out: MIC E. coli ATCC 25922
Parameter measured: MIC (µg/mL)
Expressed in µg/mL, but write only the number.

Example cases with answers are listed next.
# Compound, Parameter measured, Unit annotation, Readout number
rows = [
    ("CN(C)c1ncc(O)c2c1C[C@H]1C[C@H]3[C@H](N(C)C)C(O)=C(C(N)=O)C(=O)[C@@]3(O)C(O)=C1C2=O", "MIC", "µg/mL", 0.13),
    ("C[C@H]1c2cccc(O)c2C(=O)C2=C(O)[C@]3(O)C(=O)C(C(N)=O)=C(O)[C@@H](N(C)C)[C@@H]3[C@@H](O)[C@@H]21 [Doxycycline, doxycycline, reference compound]", "MIC", "µg/mL", 1),
    ("CN(C)CC(C)(C)CNc1nc(F)c2c(c1O)C(=O)C1=C(O)[C@]3(O)C(=O)C(C(N)=O)=C(O)[C@@H](N(C)C)[C@@H]3C[C@@H]1C2", "MIC", "µg/mL", 1),
    ("CN(C)CC(C)(C)CNc1nc(Cl)c2c(c1O)C(=O)C1=C(O)[C@]3(O)C(=O)C(C(N)=O)=C(O)[C@@H](N(C)C)[C@@H]3C[C@@H]1C2", "MIC", "µg/mL", 0.5),
]

Let us examine a further case.
q: In one line, give reported MIC of the entry CN(C)[C@@H]1C(O)=C(C(N)=O)C(=O)[C@@]2(O)C(O)=C3C(=O)c4c(O)c(NCC(C)(C)CN5CCCC5)nc(Cl)c4C[C@H]3C[C@@H]12 .
a: 2

====

- Tested on: Escherichia coli EC155, tetracycline-resistant, tet(A)
- Test name: MIC assay, EC155
- Type: cell-based
- Condition notes: Table 9, read-out: MIC E. coli EC155 (tet)A
Parameter measured: MIC (µg/mL)
// note: answer is a bare numeric in µg/mL

# Molecule, Unit annotation, Readout number
data = [
    ("CN(C)CC(C)(C)CNc1nc(Cl)c2c(c1O)C(=O)C1=C(O)[C@]3(O)C(=O)C(C(N)=O)=C(O)[C@@H](N(C)C)[C@@H]3C[C@@H]1C2", "µg/mL", 8),
]

Turning now to a further record.
q: Give the value of MIC reported for the following: C[C@H]1c2cccc(O)c2C(=O)C2=C(O)[C@]3(O)C(=O)C(C(N)=O)=C(O)[C@@H](N(C)C)[C@@H]3[C@@H](O)[C@@H]21 [Doxycycline, doxycycline, reference compound]
a: 32

====

- Test system: E. coli DH10B(pBAD-tetM), expressing tet(M)
- Test name: MIC against recombinant E. coli expressing tet(M)
- Format: cell-based
- Condition notes: result in words
Parameter measured: Effect of expression of (tet)M on activity

Solved entries (count: 4):
# Compound, Result
rows = [
    ("CO/N=C(\\C(=O)N[C@@H]1C(=O)N2C(C(=O)O)=C(CSc3nc(=O)c(=O)[nH]n3C)CS[C@H]12)c1csc(N)n1 [Ceftriaxone, ceftriaxone, reference compound]", "unaffected"),
    ("NCC[C@H](O)C(=O)N[C@@H]1C[C@H](N)[C@@H](O[C@H]2O[C@H](CN)[C@@H](O)[C@H](O)[C@H]2O)[C@H](O)[C@H]1O[C@H]1O[C@H](CO)[C@@H](O)[C@H](N)[C@H]1O [Amikacin, amikacin, reference compound]", "unaffected"),
    ("CN(C)[C@@H]1C(O)=C(C(N)=O)C(=O)[C@@]2(O)C(O)=C3C(=O)c4c(O)c(NCC(C)(C)CN5CCCC5)nc(Cl)c4C[C@H]3C[C@@H]12", "minimally affected"),
    ("CN(C)CC(C)(C)CNc1nc(F)c2c(c1O)C(=O)C1=C(O)[C@]3(O)C(=O)C(C(N)=O)=C(O)[C@@H](N(C)C)[C@@H]3C[C@@H]1C2", "minimally affected"),
]

Now look at this one.
q: Fill in Effect of expression of (tet)M on activity for record CN(C)CC(C)(C)CNc1nc(Cl)c2c(c1O)C(=O)C1=C(O)[C@]3(O)C(=O)C(C(N)=O)=C(O)[C@@H](N(C)C)[C@@H]3C[C@@H]1C2
a: minimally affected

====

- Test system: E. coli DH10B(pBAD-tetK), expressing tet(K)
- Test name: MIC against recombinant E. coli expressing tet(K)
- Format: cell-based
- Condition notes: Escherichia coli, read-out: MIC, Uninduced
Parameter measured: MIC (µg/mL)
Just the number in µg/mL, nothing appended.

# Molecule, Unit annotation, MIC
data = [
    ("C[C@H]1c2cccc(O)c2C(=O)C2=C(O)[C@]3(O)C(=O)C(C(N)=O)=C(O)[C@@H](N(C)C)[C@@H]3[C@@H](O)[C@@H]21 [Doxycycline, doxycycline, reference compound]", "µg/mL", 2),
]

q: For the molecule C[C@H]1COc2c(N3CCN(C)CC3)c(F)cc3c(=O)c(C(=O)O)cn1c23 [Levofloxacine, levofloxacin, reference compound] , report MIC.
a: 0.0156

q: For the molecule CN(C)CC(C)(C)CNc1nc(F)c2c(c1O)C(=O)C1=C(O)[C@]3(O)C(=O)C(C(N)=O)=C(O)[C@@H](N(C)C)[C@@H]3C[C@@H]1C2 , give its measured MIC value.
a: 2

q: State, in one line, measured MIC of CN(C)[C@@H]1C(O)=C(C(N)=O)C(=O)[C@@]2(O)C(O)=C3C(=O)c4c(O)c(NCC(C)(C)CN5CCCC5)nc(Cl)c4C[C@H]3C[C@@H]12
a: 4
